Target: Claudin 18.2 (CLDN18.2), expressed on CHOS-CLDN 18.2 / HEK293-CLDN 18.2 / HCC827-CLDN 18.2 cells (human, UniProt P56856 1-261)
Test: cell ELISA
measuredAttribute: EC50 (µg/mL)
Give bare numbers, in µg/mL.

Here is how some binders turned out for EC50.
QP14441442 (antibody, V domains shown) VH: QVQLVQSGAEVKKPGASVKVSCKASGYAFSSYWMNWVRQAPGQGLEWIGQIYPGNGDTTYNGKFKGRVTMTADKSTSTVYMELSSLRSEDTAVYYCARFVKGNAMDYWGQGTLVTVSS VL: DIVMTQSPDSLAVSLGERATISCKSSQSLLNSGNQKNYLTWYQQKPGQPPKMLIYWASTRESGVPDRFSGSGSGIDFTLTISSVQAEDVAVYYCQNAYSYPFTFGQGTKLEIK :: 0.243
QP14561453 (antibody, V domains shown) VH: QVQLVQSGAEVKKPGASVKVSCKASGYTFTNYFVHWVRQAPGQGLEWMGYINPYNDDTKYNEKFKGRVTMTRDTSTSTVYMELSSLRSEDTAVYYCLSLRFFAYWGQGTLVTVSS VL: DIVMTQSPDSLAVSLGERATISCKSSQSLLNSGNQKNYLTWYQQKPGQAPKLLIYWASTRESGVPDRFSGSGSGTDFTLTISSLQAEDVAVYYCQNDYSYPLTFGGGTKVEIK :: 0.357

Here is the next item to consider.
Prompt: Suppose we examine the binder QP14441439 (antibody, V domains shown) VH: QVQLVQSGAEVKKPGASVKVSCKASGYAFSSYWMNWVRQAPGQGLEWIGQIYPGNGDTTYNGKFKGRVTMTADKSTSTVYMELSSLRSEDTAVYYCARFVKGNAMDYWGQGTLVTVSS VL: DIVMTQSPDSLAVSLGERATINCKSSQSLLNSGNQKNYLTWYQQKPGQPPKLLIYWASTRESGVPDRFSGSGSGTDFTLTISSLQAEDVAVYYCQNAYSYPFTFGQGTKLEIK ; what EC50 value has been reported?
Completion: 0.109
